Values compiled from ChEMBL document CHEMBL3600290.

assay-info: Inhibition of beta-hematin formation
Type: physicochemical
readout-label: IC50 (nM)

1) Clc1ccc2c(NCCCN3CCC(NC(c4ccccn4)c4ccccn4)CC3)ccnc2c1	1600

###

assay-info: Inhibition of Plasmodium falciparum DPAP1 after 30 mins
// reported IC50 per item
readout-label: IC50

1) CCCCC(C(=O)COc1c(F)c(F)cc(F)c1F)n1cc([C@@](C)(NC(=O)OCC[C@@]2(CCC(=O)NCCCN3CCCC3=O)OOC3(O2)C2CC4CC(C2)CC3C4)C2CCCC2)nn1 (some centres not stated)	10 µM
2) CCCCC(C(=O)COc1c(F)c(F)cc(F)c1F)n1cc([C@@](C)(N)C2CCCC2)nn1 (some centres not stated)	0.07 µM
